Values were extracted from ChEMBL document CHEMBL5308504.

targetOrTestSystem: Fibroblast growth factor receptor 3 (Homo sapiens)
testSettings: Compound concentration 20.0 uM, Protein concentration 2.0 uM, Result type QC Liability
Description: Thermal Shift Assay. Domain: start/stop: P449-E759
measureName: ΔTm (°C)
# unit: °C | format: bare number

input: Sample `CN1CCc2cc(Nc3ncc(C(F)(F)F)c(NCc4cc[nH]n4)n3)ccc2C1` — what was its ΔTm?
output: 8.22

input: Sample `CC1=C(C(=O)OCCO)[C@@H](c2ccc(C#N)cc2)NC(=O)N1c1cccc(C(F)(F)F)c1` — what was its ΔTm?
output: 0.42

input: Sample CCNc1ccc(-c2nn(-c3ccccc3C)c3c2C(C)Cc2nc(NC(=O)OC)sc2-3)cn1 (stereo not drawn) — what was its ΔTm?
output: 0.96
